target: Human HER3, endogenous, on human cancer cell lines (SK-Br-3, MCF7, BT-474) (human, UniProt P21860 20-1342); test: cell-based or functional assay
Sequence (P21860 20-1342): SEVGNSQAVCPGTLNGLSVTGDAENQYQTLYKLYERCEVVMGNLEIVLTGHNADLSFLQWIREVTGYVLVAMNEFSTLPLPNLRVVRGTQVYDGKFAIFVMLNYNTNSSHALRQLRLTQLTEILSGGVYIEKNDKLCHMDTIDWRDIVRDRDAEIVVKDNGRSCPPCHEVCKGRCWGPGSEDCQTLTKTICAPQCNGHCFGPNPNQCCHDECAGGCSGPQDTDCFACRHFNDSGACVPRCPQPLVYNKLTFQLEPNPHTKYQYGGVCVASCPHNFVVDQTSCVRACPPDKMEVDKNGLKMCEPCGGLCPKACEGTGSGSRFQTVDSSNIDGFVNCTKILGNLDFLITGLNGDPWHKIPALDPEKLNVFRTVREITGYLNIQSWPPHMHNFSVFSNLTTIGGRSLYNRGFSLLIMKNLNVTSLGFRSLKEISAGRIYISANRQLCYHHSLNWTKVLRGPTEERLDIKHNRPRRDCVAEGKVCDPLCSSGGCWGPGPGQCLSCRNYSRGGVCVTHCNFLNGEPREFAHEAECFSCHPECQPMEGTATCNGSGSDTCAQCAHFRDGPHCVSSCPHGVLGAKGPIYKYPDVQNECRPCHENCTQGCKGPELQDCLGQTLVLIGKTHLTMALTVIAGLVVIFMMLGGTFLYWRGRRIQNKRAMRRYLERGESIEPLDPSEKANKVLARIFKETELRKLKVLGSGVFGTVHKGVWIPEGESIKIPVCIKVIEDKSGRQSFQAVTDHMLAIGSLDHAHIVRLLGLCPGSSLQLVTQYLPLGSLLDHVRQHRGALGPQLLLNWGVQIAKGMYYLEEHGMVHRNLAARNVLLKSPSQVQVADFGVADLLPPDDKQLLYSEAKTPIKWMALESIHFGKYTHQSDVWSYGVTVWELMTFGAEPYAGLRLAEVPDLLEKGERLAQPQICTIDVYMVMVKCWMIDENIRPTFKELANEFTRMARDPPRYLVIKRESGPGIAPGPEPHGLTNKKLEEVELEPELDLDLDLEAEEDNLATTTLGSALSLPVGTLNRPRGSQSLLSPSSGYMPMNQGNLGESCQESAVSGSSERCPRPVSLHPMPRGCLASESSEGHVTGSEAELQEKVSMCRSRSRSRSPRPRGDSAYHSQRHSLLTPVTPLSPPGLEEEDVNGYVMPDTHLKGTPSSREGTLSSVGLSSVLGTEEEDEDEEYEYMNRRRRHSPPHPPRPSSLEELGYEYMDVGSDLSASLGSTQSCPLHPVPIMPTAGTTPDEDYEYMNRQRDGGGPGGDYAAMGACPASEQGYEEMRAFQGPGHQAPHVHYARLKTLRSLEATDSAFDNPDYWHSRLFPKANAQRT
measuredParameter: BT-474 pAkt (S473) IC50

### Prompt BT-474 pAkt (S473) IC50 lookup needed for MOR13759 (antibody, human IgG1, kappa, V domains shown, tested as IgG) VH: QVQLVQSGAEVKKPGESLKISCKGSGYSFTTTWVAWVRQMPGKGLEWMGIIYPGLSDTIYSPSFQGQVTISADKSISTAYLQWSSLKASDTAMYYCARVHIIQPPSAWSYNAMDVWGQGTLVTVSS VL: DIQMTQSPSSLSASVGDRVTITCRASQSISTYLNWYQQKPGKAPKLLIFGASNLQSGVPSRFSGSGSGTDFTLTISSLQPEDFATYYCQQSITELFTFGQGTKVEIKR , thanks.
### Response 274 pM

### Prompt BT-474 pAkt (S473) IC50 lookup needed for MOR13868 (antibody, human IgG1, kappa, V domains shown, tested as IgG) VH: QVQLVQSGAEVKKPGESLKISCKGSGYSFSNYWIAWVRQMPGKGLEWMGIIYPGLSDTIYSPSFQGQVTISADKSISTAYLQWSSLKASDTAMYYCARVHIIQPPSAWSYNAMDVWGQGTLVTVSS VL: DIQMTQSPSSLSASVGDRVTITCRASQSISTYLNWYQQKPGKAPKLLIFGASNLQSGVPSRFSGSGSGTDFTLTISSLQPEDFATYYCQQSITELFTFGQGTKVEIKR , thanks.
### Response 537 pM

### Prompt BT-474 pAkt (S473) IC50 lookup needed for MOR13867 (antibody, human IgG1, kappa, V domains shown, tested as IgG) VH: QVQLVQSGAEVKKPGESLKISCKGSGYSFSNYWIAWVRQMPGKGLEWMGIIYPGQSDTIYSPSFQGQVTISADKSISTAYLQWSSLKASDTAMYYCARVHIIQPPSAWSYNAMDVWGQGTLVTVSS VL: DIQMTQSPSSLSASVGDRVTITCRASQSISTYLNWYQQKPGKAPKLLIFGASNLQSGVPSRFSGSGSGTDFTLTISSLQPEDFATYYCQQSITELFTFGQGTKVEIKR , thanks.
### Response 472 pM

### Prompt BT-474 pAkt (S473) IC50 lookup needed for MOR13752 (antibody, human IgG1, kappa, V domains shown, tested as IgG) VH: QVQLVQSGAEVKKPGESLKISCKGSGYSFTNYWVAWVRQMPGKGLEWMGIIYPGGSDTIYSPSFQGQVTISADKSISTAYLQWSSLKASDTAMYYCARVHIIQPPSAWSYNAMDVWGQGTLVTVSS VL: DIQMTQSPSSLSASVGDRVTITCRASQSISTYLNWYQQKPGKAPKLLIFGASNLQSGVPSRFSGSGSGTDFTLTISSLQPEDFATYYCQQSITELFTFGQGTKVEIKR , thanks.
### Response 39100 pM
